Target: TNIK (Homo sapiens, UniProt Q9UKE5)
Sequence (Q9UKE5 1-314): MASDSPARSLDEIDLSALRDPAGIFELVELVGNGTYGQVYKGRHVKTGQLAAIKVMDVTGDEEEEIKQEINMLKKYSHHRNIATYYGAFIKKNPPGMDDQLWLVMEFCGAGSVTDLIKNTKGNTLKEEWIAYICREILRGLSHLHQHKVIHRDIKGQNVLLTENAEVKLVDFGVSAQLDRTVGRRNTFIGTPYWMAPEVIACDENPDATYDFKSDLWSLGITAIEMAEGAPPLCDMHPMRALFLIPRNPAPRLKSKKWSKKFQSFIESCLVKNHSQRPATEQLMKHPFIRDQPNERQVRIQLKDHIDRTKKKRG
Assay: Surface plasmon resonance, binding of thiopeptides to immobilized biotinylated TNIK (single-cycle, then multicycle kinetics)
Design: Biotinylated TNIK (kinase domain, amino acids 1-314;); biotin (biotinylated protein); purchased Carna Biosciences (Kobe, Japan)
Details: SPR kinetic data, binding to immobilized TNIK
Numbered stars: 1 amine (or outer) side, 2 acyl side, 3 side chain; on linkers, the order of the positions; unused ones are H or OH. Bridge positions count the residues as written; N and C are the ends. Square brackets hold non-standard residues; d marks the D form. Peptide text beside a SMILES is read from it. X1 = C=C(N[*:2])c1nc(-c2nc(-c3nc(C(=O)OC)cs3)ccc2C(=O)[*:1])cs1; NMePhe(4-NO2) = CN[C@@H](Cc1ccc([N+](=O)[O-])cc1)C(=O)O; Tic(7-OH) = O=C(O)[C@@H]1Cc2ccc(O)cc2CN1; X2 = O=C(c1csc([C@H](CO)N[*:1])n1)[*:2]; Aad = N[C@@H](CCCC(=O)O)C(=O)O; NMeA = CN[C@@H](C)C(=O)O; Dhb = C/C=C(\N)C(=O)O; Dha = C=C(N)C(=O)O; Sar = CNCC(=O)O
I'd be grateful if you could share measured koff for these entries.
The answer should read as a number with its unit following.

Fill in the recorded koff for this compound, with TNIK (Homo sapiens, UniProt Q9UKE5) as test system: C=C1NC(=O)CN(C)C(=O)[C@H](CC(N)=O)NC(=O)c2csc(n2)[C@H](CO)NC(=O)[C@H](Cc2c[nH]c3ccccc23)NC(=O)[C@H](Cc2c[nH]c3ccccc23)NC(=O)c2ccc(-c3nc(C(=O)OC)cs3)nc2-c2csc(n2)C(=C)NC(=O)[C@H](C)NC(=O)/C(=C/C)NC(=O)[C@@H]2Cc3ccc(O)cc3CN2C(=O)[C@H](Cc2ccc([N+](=O)[O-])cc2)N(C)C(=O)CN(C)C(=O)C(=C)NC1=O [wTP12] (WW[X2]N[Sar][Dha][Dha][Sar][NMePhe(4-NO2)][Tic(7-OH)][Dhb]A; linker N-C via X1)
0.0597 s⁻¹

What about this compound? C=C1NC(=O)[C@@H]2Cc3ccc(O)cc3CN2C(=O)CN(C)C(=O)/C(=C/C)NC(=O)CN(C)C(=O)[C@H](CCCC(N)=O)NC(=O)[C@H](Cc2c[nH]c3ccccc23)NC(=O)[C@H](Cc2c[nH]c3ccccc23)NC(=O)c2ccc(-c3nc(C(=O)OC)cs3)nc2-c2csc(n2)C(=C)NC(=O)CNC(=O)/C(=C/C)NC(=O)[C@H](Cc2ccc([N+](=O)[O-])cc2)N(C)C(=O)[C@H]([C@@H](C)O)NC(=O)C(=C)NC1=O [wTP4] (WW[Aad](NH2)[Sar][Dhb][Sar][Tic(7-OH)][Dha][Dha]T[NMePhe(4-NO2)][Dhb]G; linker N-C via X1)
0.000432 s⁻¹

For C=C1NC(=O)[C@@H]2Cc3ccc(O)cc3CN2C(=O)[C@H](CCCNC(=N)N)NC(=O)[C@H](CC(C)C)NC(=O)[C@H](Cc2ccc([N+](=O)[O-])cc2)N(C)C(=O)[C@H](CC(N)=O)NC(=O)[C@H](CC(C)C)NC(=O)[C@H](CCCNC(=N)N)NC(=O)[C@H](CCCC(N)=O)NC(=O)[C@H](C)NC(=O)[C@H](Cc2c[nH]c3ccccc23)NC(=O)c2ccc(-c3nc(C(=O)OC)cs3)nc2-c2csc(n2)C(=C)NC(=O)CNC1=O [hTP13] (WA[Aad](NH2)RLN[NMePhe(4-NO2)]LR[Tic(7-OH)][Dha]G; linker N-C via X1) then?
0.0533 s⁻¹

Next up: C=C1NC(=O)[C@H](C)N(C)C(=O)[C@H](CCCNC(=N)N)NC(=O)CN(C)C(=O)/C(=C/C)NC(=O)[C@H](CCCNC(=N)N)NC(=O)[C@H](CC(C)C)NC(=O)[C@H](Cc2c[nH]c3ccccc23)NC(=O)[C@H](Cc2c[nH]c3ccccc23)NC(=O)c2ccc(-c3nc(C(=O)OC)cs3)nc2-c2csc(n2)C(=C)NC(=O)CNC(=O)/C(=C/C)NC(=O)[C@H](Cc2ccc([N+](=O)[O-])cc2)N(C)C(=O)[C@H]([C@@H](C)O)NC1=O [hTP8] (WWLR[Dhb][Sar]R[NMeA][Dha]T[NMePhe(4-NO2)][Dhb]G; linker N-C via X1)
0.00256 s⁻¹

One more compound: C=C1NC(=O)[C@H](Cc2ccc([N+](=O)[O-])cc2)N(C)C(=O)[C@H]([C@@H](C)O)NC(=O)C(=C)NC(=O)C(=C)NC(=O)[C@@H]2Cc3ccc(O)cc3CN2C(=O)CN(C)C(=O)C(=C)NC(=O)CN(C)C(=O)[C@H](CCCC(N)=O)NC(=O)[C@H](Cc2c[nH]c3ccccc23)NC(=O)[C@H](Cc2c[nH]c3ccccc23)NC(=O)c2ccc(-c3nc(C(=O)OC)cs3)nc2-c2csc(n2)C(=C)NC(=O)CNC1=O [wTP3] (WW[Aad](NH2)[Sar][Dha][Sar][Tic(7-OH)][Dha][Dha]T[NMePhe(4-NO2)][Dha]G; linker N-C via X1)
0.00579 s⁻¹

----------
System: trypsin
Construct: purchased Thermo Fisher
Assay: Stability to agarose-immobilized trypsin (LC/MS)
Format: in vitro ADME
Details: isolated enzyme trypsin, pH 7.9
Numbered stars: 1 amine (or outer) side, 2 acyl side, 3 side chain; on linkers, the order of the positions; unused ones are H or OH. Bridge positions count the residues as written; N and C are the ends. Square brackets hold non-standard residues; d marks the D form. Peptide text beside a SMILES is read from it. X1 = C=C(N[*:2])c1nc(-c2nc(-c3nc(C(=O)OC)cs3)ccc2C(=O)[*:1])cs1; Tic(7-OH) = O=C(O)[C@@H]1Cc2ccc(O)cc2CN1; NMeA = CN[C@@H](C)C(=O)O; Sar = CNCC(=O)O
readoutKind: half-life at 15 µM (h)
Use h as the unit, but write only the number.

# lookup: half-life at 15 µM of C=C1NC(=O)[C@H](CC(C)C)NC(=O)[C@H](CC(N)=O)NC(=O)[C@H](CO)NC(=O)[C@H](CCCNC(=N)N)NC(=O)[C@H](CCCNC(=N)N)NC(=O)CN(C)C(=O)[C@H](C)N(C)C(=O)[C@H](CC(C)C)NC(=O)[C@H](CCCNC(=N)N)NC(=O)[C@@H]2CCCN2C(=O)[C@@H]2Cc3ccc(O)cc3CN2C(=O)[C@H]([C@@H](C)O)NC(=O)[C@H](Cc2c[nH]c3ccccc23)NC(=O)c2ccc(-c3nc(C(=O)OC)cs3)nc2-c2csc1n2 [hTP15] (WT[Tic(7-OH)]PRL[NMeA][Sar]RRSNL; linker N-C via X1)
1.4

----------
Molecular target: TNIK (Homo sapiens, UniProt Q9UKE5)
Assay: ADP-Glo kinase inhibition assay
Assay type: biochemical
Parameters: Biotinylated TNIK (kinase domain, amino acids 1-314;); biotin (biotinylated protein); purchased Carna Biosciences (Kobe, Japan)
Settings: 0.5 nM TNIK, 25 µM ATP, 15 µM MSTtide; 4-parameter logistic fit; read-out: ADP-Glo IC50 against TNIK
Numbered stars: 1 amine (or outer) side, 2 acyl side, 3 side chain; on linkers, the order of the positions; unused ones are H or OH. Bridge positions count the residues as written; N and C are the ends. Square brackets hold non-standard residues; d marks the D form. Peptide text beside a SMILES is read from it. X1 = C=C(N[*:2])c1nc(-c2nc(-c3nc(C(=O)OC)cs3)ccc2C(=O)[*:1])cs1; NMePhe(4-NO2) = CN[C@@H](Cc1ccc([N+](=O)[O-])cc1)C(=O)O; ValThz = CC(C)[C@H](N[*:1])c1nc(C(=O)[*:2])cs1; Tic(7-OH) = O=C(O)[C@@H]1Cc2ccc(O)cc2CN1; Aad = N[C@@H](CCCC(=O)O)C(=O)O; Dhb = C/C=C(\N)C(=O)O; Dha = C=C(N)C(=O)O; Sar = CNCC(=O)O
readoutKind: IC50 (µM)
Give your result in µM as a bare value.

Entry C=C1NC(=O)[C@H](CCCC(N)=O)NC(=O)[C@@H]2Cc3ccc(O)cc3CN2C(=O)[C@H](CC(N)=O)NC(=O)/C(=C/C)NC(=O)[C@H](Cc2ccc([N+](=O)[O-])cc2)N(C)C(=O)CN(C)C(=O)[C@H](C)NC(=O)[C@H](Cc2c[nH]c3ccccc23)NC(=O)c2ccc(-c3nc(C(=O)OC)cs3)nc2-c2csc(n2)C(=C)NC(=O)c2csc(n2)[C@H](C(C)C)NC(=O)C(=C)NC(=O)/C(=C/C)NC1=O [wTP8] (WA[Sar][NMePhe(4-NO2)][Dhb]N[Tic(7-OH)][Aad](NH2)[Dha][Dhb][Dha][ValThz]; linker N-C via X1) has what IC50?
15.2
